# Test system: LC-2-ad
# PROTOCOL_DETAILS: relative viability (nuclei count vs DMSO), 5 days (fraction); higher = more cells survive
# ASSAY_CONTEXT: first compound 0.006325 µM
relative viability listing for selected compounds.
ENDPOINT: relative viability

>>> meas_value("CC(=O)O[C@@]12CO[C@@H]1C[C@H](O)[C@@]1(C)C(=O)[C@H](O)C3=C(C)[C@@H](OC(=O)[C@H](O)[C@@H](NC(=O)OC(C)(C)C)c4ccccc4)C[C@@](O)([C@@H](OC(=O)c4ccccc4)[C@H]21)C3(C)C [Docetaxel] + CS(=O)(=O)N1CCN(Cc2cc3nc(-c4cccc5[nH]ncc45)nc(N4CCOCC4)c3s2)CC1 [Pictilisib] (partner 1 µM)")
0.113
>>> meas_value("CC(=O)O[C@@]12CO[C@@H]1C[C@H](O)[C@@]1(C)C(=O)[C@H](O)C3=C(C)[C@@H](OC(=O)[C@H](O)[C@@H](NC(=O)OC(C)(C)C)c4ccccc4)C[C@@](O)([C@@H](OC(=O)c4ccccc4)[C@H]21)C3(C)C [Docetaxel] + Cc1cc(Nc2cc(N3CCN(C)CC3)nc(Sc3ccc(NC(=O)C4CC4)cc3)n2)n[nH]1 [Tozasertib] (partner 0.1 µM)")
0.37
>>> meas_value("CC(=O)O[C@@]12CO[C@@H]1C[C@H](O)[C@@]1(C)C(=O)[C@H](O)C3=C(C)[C@@H](OC(=O)[C@H](O)[C@@H](NC(=O)OC(C)(C)C)c4ccccc4)C[C@@](O)([C@@H](OC(=O)c4ccccc4)[C@H]21)C3(C)C [Docetaxel] + C[C@]1(O)C[C@@H](c2nc(-c3ccc4ccc(-c5ccccc5)nc4c3)c3c(N)nccn32)C1 [Linsitinib] (partner 1 µM)")
0.159
>>> meas_value("CC(=O)O[C@@]12CO[C@@H]1C[C@H](O)[C@@]1(C)C(=O)[C@H](O)C3=C(C)[C@@H](OC(=O)[C@H](O)[C@@H](NC(=O)OC(C)(C)C)c4ccccc4)C[C@@](O)([C@@H](OC(=O)c4ccccc4)[C@H]21)C3(C)C [Docetaxel] + N=C(N)NC(=N)NCCc1ccccc1 [Phenformin] (partner 250 µM)")
0.243
>>> meas_value("CC(=O)O[C@@]12CO[C@@H]1C[C@H](O)[C@@]1(C)C(=O)[C@H](O)C3=C(C)[C@@H](OC(=O)[C@H](O)[C@@H](NC(=O)OC(C)(C)C)c4ccccc4)C[C@@](O)([C@@H](OC(=O)c4ccccc4)[C@H]21)C3(C)C [Docetaxel] + CC1(C)CCC(c2ccc(Cl)cc2)=C(CN2CCN(c3ccc(C(=O)NS(=O)(=O)c4ccc(N[C@H](CCN5CCOCC5)CSc5ccccc5)c(S(=O)(=O)C(F)(F)F)c4)cc3)CC2)C1 [Navitoclax] (partner 0.5 µM)")
0.0942
>>> meas_value("CC(=O)O[C@@]12CO[C@@H]1C[C@H](O)[C@@]1(C)C(=O)[C@H](O)C3=C(C)[C@@H](OC(=O)[C@H](O)[C@@H](NC(=O)OC(C)(C)C)c4ccccc4)C[C@@](O)([C@@H](OC(=O)c4ccccc4)[C@H]21)C3(C)C [Docetaxel] + O=C(CCCCCCC(=O)Nc1ccccc1)NO [Vorinostat] (partner 1 µM)")
0.227
>>> meas_value("CC(=O)O[C@@]12CO[C@@H]1C[C@H](O)[C@@]1(C)C(=O)[C@H](O)C3=C(C)[C@@H](OC(=O)[C@H](O)[C@@H](NC(=O)OC(C)(C)C)c4ccccc4)C[C@@](O)([C@@H](OC(=O)c4ccccc4)[C@H]21)C3(C)C [Docetaxel] + C[C@@H](Oc1cc(-c2cnn(C3CCNCC3)c2)cnc1N)c1c(Cl)ccc(F)c1Cl [Crizotinib] (partner 1 µM)")
0.389
>>> meas_value("CC(=O)O[C@@]12CO[C@@H]1C[C@H](O)[C@@]1(C)C(=O)[C@H](O)C3=C(C)[C@@H](OC(=O)[C@H](O)[C@@H](NC(=O)OC(C)(C)C)c4ccccc4)C[C@@](O)([C@@H](OC(=O)c4ccccc4)[C@H]21)C3(C)C [Docetaxel] + Nc1nc2[nH]cc(CCc3ccc(C(=O)N[C@@H](CCC(=O)O)C(=O)O)cc3)c2c(=O)[nH]1 [Pemetrexed] (partner 0.2 µM)")
0.173

Hello, the source for this data is the supplement of paper PMC10307832, in case you need it.
